B1: Lysozyme C, P61626 (parent)
chain: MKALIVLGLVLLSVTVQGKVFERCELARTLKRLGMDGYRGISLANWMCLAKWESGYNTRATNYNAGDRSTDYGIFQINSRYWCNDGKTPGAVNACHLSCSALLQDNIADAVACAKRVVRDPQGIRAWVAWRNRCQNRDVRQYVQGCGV

Variants of: B1
Settings: Homo sapiens; pH 3.1; Thermal; DSC; glycine-HCl 0.05 M; reversible: yes; structure 1LZ1; whole UniProt chain shown
Field: unfolding enthalpy (calorimetric). Provide a value for each of the variants that follow.
Express your answer in kcal/mol, writing the number without its unit.

unfolding enthalpy (calorimetric) for T88V ? 119

unfolding enthalpy (calorimetric) for T58V ? 115

unfolding enthalpy (calorimetric) for T70V ? 111

unfolding enthalpy (calorimetric) for T70A ? 109

unfolding enthalpy (calorimetric) for T58A ? 117

unfolding enthalpy (calorimetric) for T88A ? 110

The reported numbers originate from FireProtDB (doi:10.1021/bi9910169).
